Target or system: human Thromboxane A2 Receptor (TXA2), TBXA2R (gene 6915)
Protocol text: NVS_GPCR_hTXA2: NovaScreen (NVS) G Protein-Coupled Receptor Assay for human Thromboxane A2 Receptor (TXA2) (AID 2283282);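 further: actives reduce bound radioligand signal relative to DMSO baseline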
Inconclusive results are not listed. Activity calls are given as the source filed them. How the source made its calls: active means hit-call score of the fitted dose curve at least 0.9, where 1 is the maximum; inconclusive means response in the unintended direction; inactive means score below 0.9.
// one of True (active), False (inactive), no free text

• CCCCCCC=O = False
• Oc1ccc(/C=C/c2cc(O)cc(O)c2)cc1 = False
• CC/C=C\C/C=C\C/C=C\CCCCCCCC(=O)OC = True
• Fc1ccc(Br)cc1 = False
• c1ccc(-c2nc3ccccc3[nH]2)cc1 = True

Ask: Record lookup: outcome of this test for CCOC(=O)C1=NN(c2ccc(Cl)cc2Cl)C(C)(C(=O)OCC)C1 (configuration not stated) ?
Reply: False

Ask: Param item: Oc1c(Cl)cc(Cl)c(Cl)c1Cl
Reply: False
